System: 786-0
TEST SUMMARY: NCI tumour cell line growth inhibition, 48 h
Activity calls are given as the source filed them. No stated cut-off is given here; in the data, active = GI50 up to about 1.1 µM and inactive = higher.
# key: entry, value: GI50
MEASURED PROPERTY: GI50

compound="CC(=O)O[C@]12CCCCCC1C1(O)C(O)CCCC[C@H]12 (stereo partly drawn)" measured_result="> 100 µM (inactive)"
compound=O=[N+]([O-])c1ccc(N2CCC(CCCC3CCN(c4ccc([N+](=O)[O-])cc4[N+](=O)[O-])CC3)CC2)c([N+](=O)[O-])c1 measured_result="14.5 µM (inactive)"
compound=COc1ccc(S(=O)(=O)Nc2ccc(-c3csc(N4C(=O)/C(=C/C=C\c5ccccc5)N=C4c4ccccc4)n3)cc2)cc1Cl measured_result="31.3 µM (inactive)"
compound=Cn1c(=O)c2nc(CCCCc3nc4c(=O)n(C)c(=S)n(C)c4[nH]3)[nH]c2n(C)c1=S measured_result="> 100 µM (inactive)"
compound=C#C[C@@]1(O)CCCC2=CC3(CC[C@]21C)SCCS3 measured_result="> 100 µM (inactive)"
compound="C=C1CC(C/C=C(\\C)CC2CC(=C)C(=O)O2)OC1=O (stereo not drawn)" measured_result="> 100 µM (inactive)"
compound=NS(=O)(=O)c1ccc(NC(=O)CC(=O)Nc2ccc(S(N)(=O)=O)cc2)cc1 measured_result="> 100 µM (inactive)"
compound=COC(=O)CN1Cc2cc(C)cc(c2O)CN(CC(=O)OC)Cc2cc(C)cc(c2O)CN(CC(=O)OC)Cc2cc(C)cc(c2O)C1 measured_result="> 100 µM (inactive)"
compound=COc1cc(OCc2ccc3nc(OC)c(OC)nc3c2)cc(OC)c1OC measured_result="> 10 µM (inactive)"
compound=CN(C)CCn1c(=O)nc2c3c(c([N+](=O)[O-])ccc31)Nc1ccc(O)cc1-2 measured_result="1.67 µM (inactive)"
compound="CC(C)CC12CC3CCC(CNC1=O)C32C (stereo not drawn)" measured_result="> 100 µM (inactive)"
compound="O=c1[nH]c(=O)n(C2CC(O)C(CO)O2)cc1C(F)(C(F)(F)F)C(F)(F)F (stereo not drawn)" measured_result="> 100 µM (inactive)"
compound="CCCCCC(=O)CCCCCCCC(O)CC(=O)OCC (stereo not drawn)" measured_result="> 100 µM (inactive)"
compound="CC(Cn1c(=O)oc2ccccc21)N(C)C (stereo not drawn)" measured_result="> 100 µM (inactive)"
compound="CCOC(OC1=C(C#N)CCCC1)C(CC)[Se]c1ccccc1 (stereo not drawn)" measured_result="17.4 µM (inactive)"
compound="O=C1C2CC=CCC2C(=O)N1n1c(-c2ccccc2)n[nH]c1=O (stereo not drawn)" measured_result="> 100 µM (inactive)"
compound=COC(=O)/C=C(\C(=O)OC)c1c2c3c(cc(OC)c(OC)c3c3ccccc13)CCN2C measured_result="70.8 µM (inactive)"
compound=Cc1ccc2ccc(O)cc2c1 measured_result="76.2 µM (inactive)"
compound=O=C(NCCNCCNC(=O)C(F)(F)F)C(F)(F)F measured_result="> 100 µM (inactive)"
compound=COc1cc2c(cc1OC)C(=O)N(c1ccc(OCCN3CCCC3)cc1)C2 measured_result="> 100 µM (inactive)"
compound=Cc1cccc2nc3cccc(C(=O)NCCC[N+](C)(CCCNC(=O)c4cccc5nc6cccc(C)c6nc45)Cc4c([N+](=O)[O-])ncn4C)c3nc12 measured_result="4.07 µM (inactive)"
compound=CCc1n[nH]c(=O)n1CCCCCCCCCCCCn1c(CC)n[nH]c1=O measured_result="35.5 µM (inactive)"
compound=C=CCN(c1cc(OCc2ccccc2)c(NC(C)=O)cc1[N+](=O)[O-])S(C)(=O)=O measured_result="20.6 µM (inactive)"
